SUBJECT_OF_TEST: Glutamate NMDA receptor; Grin1/Grin2a (Rattus norvegicus) (UniProt P35439+Q00959)
TEST_DETAILS: Potentiation of rat recombinant GluN1/GluN2A expressed in Xenopus laevis oocytes assessed as increase in glutamate/glycine-induced current response at 30 uM by two-electrode voltage clamp technique relative to control
Type: cell-based
// reported Activity for each item listed
API: value field is a number in %; no unit string.

Use the examples below as a reference point.
Return Activity for the following compound: COC(=O)c1ccc(C2C(C(C)=O)=C(O)C(=O)N2CCc2c[nH]c3ccccc23)c(C)c1 (stereo not drawn) 101

Return Activity for the following compound: COC(=O)c1ccc(C2C(C(=O)c3cccnc3)=C(O)C(=O)N2CCc2cn(C)c3ccccc23)cc1 (stereo not drawn) 111

Could you now consider this next compound?
Return Activity for the following compound: NS(=O)(=O)c1ccc(C2C(C(=O)c3cccnc3)=C(O)C(=O)N2CCc2c[nH]c3ccccc23)cc1 (stereo not drawn) 86
